Provide the recorded PBM binding z-score for the entries that follow.
System: PPARg:RXRa IVT, anti-PPARg (NR concentration 270 nM, RXRa partner concentration 90 nM)
EXPERIMENTAL PROTOCOL: PBM binding z-score (relative to random genomic background probes); higher = stronger binding; sequences stand for … in GC…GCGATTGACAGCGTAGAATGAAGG
One number for each entry.

Example entries begin here.
ACTTACGAGTCAACGAGGTTATAGCACGCGTATA: 0.267
TCTAGTAGGTTAGGGGCATTCAGAATGGCGTCGA: 4.09
GCTGGTTGGTCAGTAAAAGGTCACACACCGGTCG: 2.51
ACTATTGGTTGAGACGAGGGCAACCGATAGGTTG: 0.516
AGTCAAAGTTCACTAGGTATCGTAAGATTCAGCT: 3.6
TGGCAAAGTTCAAAGGTAACGTAAGTATCCACAC: 3.1

Dear colleague, could you send me PBM binding z-score for each of the items below? Thanks.
1. CTTCCAAGGTCAAAGGTCAGTGAAGAGATGACGG
2. CAAACTAGGTCACCGGAATGTCAAAGTCCGCATG
3. ATCTCTAGGTAAGATTCAGTTCAGTGAAGAACGC

Given back:
1. 5.99
2. 9.1
3. 0.954

Dear colleague, could you send me PBM binding z-score for each of the items below? Thanks.
1. GCTCGGAGGAGAAGGTCAGAGCTTTGTCCGTAGA
2. AGAACGAGGGCAATCAGTTGATAGCACGGGTGGC

Given back:
1: 0.169; 2: 3.01
